EXPERIMENTAL TARGET: von Willebrand factor (Homo sapiens) (UniProt P04275)
Sequence (P04275 whole entry): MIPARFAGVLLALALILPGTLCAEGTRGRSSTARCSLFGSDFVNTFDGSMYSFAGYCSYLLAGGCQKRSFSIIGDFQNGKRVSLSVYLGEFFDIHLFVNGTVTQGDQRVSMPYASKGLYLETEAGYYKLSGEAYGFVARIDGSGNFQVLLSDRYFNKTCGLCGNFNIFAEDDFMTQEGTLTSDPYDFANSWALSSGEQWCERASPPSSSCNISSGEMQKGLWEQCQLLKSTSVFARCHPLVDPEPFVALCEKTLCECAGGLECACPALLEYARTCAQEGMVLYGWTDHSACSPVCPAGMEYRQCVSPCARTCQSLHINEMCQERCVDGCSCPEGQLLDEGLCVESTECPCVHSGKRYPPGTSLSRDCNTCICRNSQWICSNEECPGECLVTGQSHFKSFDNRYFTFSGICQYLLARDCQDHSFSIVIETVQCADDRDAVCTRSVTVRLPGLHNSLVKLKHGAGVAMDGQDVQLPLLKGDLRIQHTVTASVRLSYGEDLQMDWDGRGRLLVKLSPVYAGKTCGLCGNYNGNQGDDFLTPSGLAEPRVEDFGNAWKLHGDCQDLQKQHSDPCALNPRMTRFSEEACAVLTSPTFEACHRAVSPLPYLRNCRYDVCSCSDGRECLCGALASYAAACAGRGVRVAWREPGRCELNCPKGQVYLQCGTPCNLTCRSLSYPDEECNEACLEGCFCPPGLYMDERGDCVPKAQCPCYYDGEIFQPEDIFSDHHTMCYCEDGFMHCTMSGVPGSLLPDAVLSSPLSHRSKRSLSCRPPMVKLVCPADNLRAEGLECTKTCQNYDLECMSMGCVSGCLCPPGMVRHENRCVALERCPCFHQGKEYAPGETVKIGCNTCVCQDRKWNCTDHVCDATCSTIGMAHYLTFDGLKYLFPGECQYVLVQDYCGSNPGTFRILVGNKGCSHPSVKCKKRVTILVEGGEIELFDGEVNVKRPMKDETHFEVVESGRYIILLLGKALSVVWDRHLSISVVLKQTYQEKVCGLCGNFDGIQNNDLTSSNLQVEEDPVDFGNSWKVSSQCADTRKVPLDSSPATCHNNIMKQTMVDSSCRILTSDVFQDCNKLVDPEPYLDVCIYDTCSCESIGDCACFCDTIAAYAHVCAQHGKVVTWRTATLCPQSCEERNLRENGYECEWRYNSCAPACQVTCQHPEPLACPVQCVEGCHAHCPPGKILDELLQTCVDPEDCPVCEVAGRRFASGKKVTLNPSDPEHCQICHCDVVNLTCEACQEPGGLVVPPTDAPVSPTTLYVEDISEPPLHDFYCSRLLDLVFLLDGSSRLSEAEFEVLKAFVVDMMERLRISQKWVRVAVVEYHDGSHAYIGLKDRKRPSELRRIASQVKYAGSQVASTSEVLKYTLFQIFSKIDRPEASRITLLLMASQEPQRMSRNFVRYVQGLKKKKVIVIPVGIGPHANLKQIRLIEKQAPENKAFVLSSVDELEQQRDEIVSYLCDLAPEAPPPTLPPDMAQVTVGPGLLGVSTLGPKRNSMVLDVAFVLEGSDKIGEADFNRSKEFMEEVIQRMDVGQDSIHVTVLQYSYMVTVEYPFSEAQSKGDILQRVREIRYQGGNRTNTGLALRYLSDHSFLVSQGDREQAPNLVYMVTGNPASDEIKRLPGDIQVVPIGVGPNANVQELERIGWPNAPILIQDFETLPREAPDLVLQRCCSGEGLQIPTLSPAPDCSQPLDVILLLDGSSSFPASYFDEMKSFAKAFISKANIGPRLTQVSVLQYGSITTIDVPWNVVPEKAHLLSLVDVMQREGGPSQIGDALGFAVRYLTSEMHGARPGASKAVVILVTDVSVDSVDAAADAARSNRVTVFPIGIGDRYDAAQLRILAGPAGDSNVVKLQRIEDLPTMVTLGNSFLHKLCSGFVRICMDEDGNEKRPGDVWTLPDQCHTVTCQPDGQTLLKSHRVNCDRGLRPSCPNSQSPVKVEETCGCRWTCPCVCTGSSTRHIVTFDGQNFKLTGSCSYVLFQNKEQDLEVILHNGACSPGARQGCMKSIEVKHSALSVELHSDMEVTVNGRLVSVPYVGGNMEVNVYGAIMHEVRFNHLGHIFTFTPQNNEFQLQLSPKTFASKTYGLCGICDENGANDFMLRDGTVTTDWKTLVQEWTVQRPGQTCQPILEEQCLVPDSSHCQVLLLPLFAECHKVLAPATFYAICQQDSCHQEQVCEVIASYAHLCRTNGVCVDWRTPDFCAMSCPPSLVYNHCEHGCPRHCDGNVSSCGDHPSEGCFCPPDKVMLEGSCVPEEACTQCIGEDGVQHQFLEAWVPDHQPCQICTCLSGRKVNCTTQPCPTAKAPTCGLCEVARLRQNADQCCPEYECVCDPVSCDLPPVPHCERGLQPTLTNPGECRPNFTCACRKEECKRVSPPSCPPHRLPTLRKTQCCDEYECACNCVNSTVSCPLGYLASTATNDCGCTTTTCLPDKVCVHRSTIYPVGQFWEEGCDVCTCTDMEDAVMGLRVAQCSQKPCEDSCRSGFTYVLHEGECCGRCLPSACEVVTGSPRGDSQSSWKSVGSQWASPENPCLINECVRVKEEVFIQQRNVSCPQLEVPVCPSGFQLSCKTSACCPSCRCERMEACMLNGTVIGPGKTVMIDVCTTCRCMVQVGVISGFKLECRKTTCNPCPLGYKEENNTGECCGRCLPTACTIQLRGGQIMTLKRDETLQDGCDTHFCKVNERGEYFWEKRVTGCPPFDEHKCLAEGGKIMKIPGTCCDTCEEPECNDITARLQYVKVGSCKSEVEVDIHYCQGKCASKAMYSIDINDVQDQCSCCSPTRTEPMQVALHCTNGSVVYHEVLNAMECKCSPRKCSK
EXPERIMENTAL PROTOCOL: Inhibition of GPIbalpha-vWF binding assessed as inhibition of ristocetin-induced platelet agglutination at 100 uM after 2 mins by static agglutination assay
READOUT NAME: inhibition (%)
Write down the numeric answer in % and omit the unit.

According to the records, this compound CC(C)C[C@@H]1NC(=O)[C@H](Cc2cnc[nH]2)NC(=O)[C@H](CO)NC(=O)[C@H](C)NC(=O)[C@H](C(C)C)NC(=O)[C@H](CCCCN)NC(=O)[C@H](CO)NC(=O)[C@H](C(C)C)NC(=O)[C@H](CCC(=O)O)NC(=O)[C@H]2CCCN2C(=O)[C@@H]2CCCN2C(=O)[C@H](CC(N)=O)NC(=O)[C@H](C(C)C)NC(=O)[C@H](CCC(=O)O)NC1=O displays inhibition of 10.4

According to the records, this compound CC(=O)N[C@@H](CO)C(=O)N[C@@H](Cc1cnc[nH]1)C(=O)N[C@@H](CC(C)C)C(=O)N[C@@H](CCC(=O)O)C(=O)N[C@H](C(=O)N[C@@H](CC(N)=O)C(=O)N1CCC[C@H]1C(=O)N1CCC[C@@H]1C(=O)N[C@@H](CCC(=O)O)C(=O)N[C@H](C(=O)N[C@@H](CO)C(=O)N[C@@H](CCCCN)C(=O)N[C@H](C(=O)N[C@@H](C)C(=O)O)C(C)C)C(C)C)C(C)C displays inhibition of 42.1

According to the records, this compound CC(C)[C@@H]1NC(=O)CNC(=O)[C@@H]2CSSC[C@H](NC(=O)[C@H](C(C)C)NC(=O)[C@H](CC(=O)O)NC1=O)C(=O)N[C@@H](C)C(=O)N[C@@H](C(C)C)C(=O)N[C@@H]([C@@H](C)O)C(=O)N1CCC[C@H]1C(=O)N1CCC[C@@H]1C(=O)N[C@@H](C(C)C)C(=O)N[C@@H](Cc1c[nH]c3ccccc13)C(=O)N[C@@H](CCCCN)C(=O)N2 displays inhibition of 44.6
